Every entry's value here was drawn from ChEMBL document CHEMBL4513216.

For each record, write down the corresponding cytotoxicity at 10 µM.
Assay: Toxicity liver stage against HepG2, at 10uM
Type: cell-based
Set-up: test concentration 10 uM, cell line HepG2-A16-CD81EGFP
Details: human, HepG2-A16-CD81EGFP cells; read-out: INHIBITION
One number for each entry, in %.

Some entries whose results are on file:
• CC(C)Nc1n[nH]c2nc(C3CCN(C(=O)c4ccccn4)C3)ccc12 (centres undefined) = 17
• O=C(NCc1ccco1)[C@@]12CCO[C@@H]1CCN(c1ncccn1)C2 = 0.864
• O=C(NC1CCN(C2CC2)CC1)c1cc(Cl)ccc1-n1cnnn1 = 3.43
• Cc1nc(C)n(CC2CCCN2c2ncnc3sc(C)c(C)c23)n1 (centres undefined) = 21.4
• CCN1CCN(c2ncnc3c2CCN(C(=O)C2CC2)C3)CC1 = -3.2
• CCc1ncc2c(n1)CN(CC(O)COc1ccc(C#N)cc1)CC2 (centres undefined) = -7.65
• CC(NC(=O)Cc1ccon1)c1ccc(OCC2CC2)c(F)c1 (centres undefined) = 5.47
• NC(=O)NC(=O)CCSc1ccccc1Cl = 11.8
• O=C(O)C1c2nc[nH]c2CCN1Cc1ccccc1-c1ccccc1 (centres undefined) = -10.5
• CCS(=O)(=O)c1ccc(CNc2c(Cl)cccc2C#N)cc1 = -50.6

Quick batch: cytotoxicity at 10 µM for everything below.
1. CC(C)c1nccn1C1CCCN(C(=O)c2cnc[nH]2)C1 (centres undefined)
2. CC(C)OCCC(=O)NCC(c1c(F)cccc1F)N(C)C (centres undefined)
3. CCCN1CCC(c2nc3ccc(-c4ccncc4)cn3n2)CC1
4. CNC(=O)NC(=O)C(C)Nc1ccccc1OCCOC (centres undefined)
5. CCN(Cc1nc(COC)no1)Cc1cc2ccc(F)cc2[nH]c1=O
6. Cc1cc(Br)oc1C(=O)N1CCN(CC(N)=O)CC1
7. CN(CC(=O)N(C)C1CCCCC1)Cc1nc2c(cnn2C)c(=O)[nH]1
8. Cc1nnc(SCCC(=O)N(C)Cc2ccc(F)cc2F)[nH]1

OUT:
1: -0.808; 2: -1.19; 3: -117; 4: 2.24; 5: 2.03; 6: 0.658; 7: 9.12; 8: 5.21

IN: Recorded cytotoxicity at 10 µM of Cn1cnnc1C1CCN(C(=O)Cc2ccc3c(c2)OCCO3)CC1 , please.
OUT: -10.4
